Numbers sourced from patent US20240400654A1.

# Assayed Target: HRgpA-6H (Porphyromonas gingivalis) (UniProt P28784)
# Method Description: ELISA, coated HRgpA-6H
// reported Ratio OD(Variant)/OD(WT) for each item listed

| Binder | Ratio OD(Variant)/OD(WT) |
| --- | --- |
| KB001 mouse Fab VL N54D (Fab, V domains shown) VH: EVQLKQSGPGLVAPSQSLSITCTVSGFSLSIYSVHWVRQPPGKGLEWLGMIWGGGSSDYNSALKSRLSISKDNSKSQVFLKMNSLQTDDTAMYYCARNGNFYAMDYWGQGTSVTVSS VL: QIVLTQSPAIMSASLGERVTMTCTASSSVSSSFLHWYQQKPGSSPQLWIYSTSDLASGVPARFSGSGSGTSYSLTISSMEAEDAATYYCHQYHHSPYIYTFGGGTKLEIK | 0.925 |
| KB001 mouse Fab VL S53D (Fab, V domains shown) VH: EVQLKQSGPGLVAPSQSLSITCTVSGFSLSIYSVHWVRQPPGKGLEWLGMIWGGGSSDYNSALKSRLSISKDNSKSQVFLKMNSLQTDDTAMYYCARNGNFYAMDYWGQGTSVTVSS VL: QIVLTQSPAIMSASLGERVTMTCTASSSVSSSFLHWYQQKPGSSPQLWIYSTDNLASGVPARFSGSGSGTSYSLTISSMEAEDAATYYCHQYHHSPYIYTFGGGTKLEIK | 0.984 |
| KB001 mouse Fab VL A25V (Fab, V domains shown) VH: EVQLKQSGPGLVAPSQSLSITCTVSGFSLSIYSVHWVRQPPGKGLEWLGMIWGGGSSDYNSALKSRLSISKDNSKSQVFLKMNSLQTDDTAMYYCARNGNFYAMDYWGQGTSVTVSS VL: QIVLTQSPAIMSASLGERVTMTCTVSSSVSSSFLHWYQQKPGSSPQLWIYSTSNLASGVPARFSGSGSGTSYSLTISSMEAEDAATYYCHQYHHSPYIYTFGGGTKLEIK | 0.981 |
